Recorded values, source PubChem BioAssay.

# assay_target: Alpha-bungarotoxin (Bungarus multicinctus)
# procedure_summary: alpha-bungarotoxin binders on microarray, profiling panel, artefact control for SMM control protein annotation, biochemical, small-molecule microarray, Alexa647 label, 635/667 nm fluorescence (AID 1117)
# condition_label: alpha-BTX-A647 binding fluorescence, higher = more signal
quantity_kind: composite z-score
Answers are plain numbers.

Worked cases, composite z-score given:
{"molecule": "[N-]=[N+]=NCc1ccccc1C[C@@]1(C(=O)NCc2ccccc2)N=C(c2ccc(OCCCO)cc2)O[C@@H]1c1ccccc1N=[N+]=[N-]", "composite z-score": 0.937}
{"molecule": "COC(=O)[C@@]1(Cc2ccccc2)[C@H]2c3cc(C(=O)N(C)C)n(CCc4ccc(O)c(OC)c4)c3C[C@H]2CN1C(=O)c1ccccc1", "composite z-score": 0.19}

Could you tell me composite z-score for each of these molecules? They are listed below.
1. COCCOC(=O)N1C(=O)[C@@]2(c3cc(C#CC4=CCCCC4)ccc31)[C@H](c1ccccc1OCCO)N1[C@H](c3ccccc3)[C@H](c3ccccc3)OC(=O)[C@H]1[C@@H]2C(=O)Nc1nc2ccccc2s1
2. O=C1C2C=CC(C(O)c3ccccc3)N(Nc3ccccc3F)C2C(=O)N1c1ccccc1 (configuration not stated)
3. COC(=O)[C@@]1(Cc2ccccc2)[C@H]2c3cc(C(=O)N(C)C)n(CCN4CNCC4=O)c3C[C@H]2CN1C(=O)c1ccccc1
4. C#CCN([C@@H](Cc1ccc(O)cc1)C(=O)OC)[C@@H](/C=C/C1CC1)[C@H](O)Cc1ccccc1

1. 1.48
2. 0.204
3. 3.12
4. -0.0345

Sample O=C1OCC=C[C@H]2OC34C=CCN(Cc5ccccc5)C(=O)[C@H]3N(CCCCCCO)C(=O)[C@@H]4[C@@H]12 (some centres not stated) — what was its composite z-score?
-0.367

###

# procedure_summary: CREB reporter modulators under forskolin, primary screen, cell-based, PC12, CRE-LacZ reporter, forskolin-stimulated (AID 1146);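 further: PC12 cells with 6xCRE LacZ reporter stimulated by forskolin 10 µM; beta-galactosidase reporter signal reflecting CREB driven transcription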
# condition_label: luminescence, 4.5 h, higher = more signal, called active from +8 up or from −8 down
Mark Condition met for reported z-score of 0.2 or greater; mark Condition not met for anything smaller.

Illustrative cases are given below, each with its answer.
{"compound": "COCCOC(=O)N1C(=O)[C@@]2(c3cc(C#CC4(O)CCCCCC4)ccc31)[C@H](c1ccc(O)cc1)N1[C@H](c3ccccc3)[C@H](c3ccccc3)OC(=O)[C@H]1[C@@H]2C(=O)NC[C@H](O)c1ccccc1", "label_class": "Condition not met"}
{"compound": "CC1=C[C@@]2(CO)C(=O)[C@]3(CO3)[C@@H]1[C@H]1[C@]2(C)C=C(CO)C(=O)[C@]12CO2", "label_class": "Condition met"}
{"compound": "COC(=O)c1ccc([C@H](NC(=O)c2ccco2)[C@]2(C)C[C@H]2C2CCCCC2)cc1", "label_class": "Condition met"}
{"compound": "CCCCC(O)C1C=CC2C(=O)N(c3ccccc3)C(=O)C2N1Nc1ccc(C(C)C)cc1 (stereo unspecified)", "label_class": "Condition met"}
{"compound": "O=C1O[C@@H](c2ccccc2)[C@@H](c2ccccc2)N2[C@@H](c3ccc(O)cc3)[C@]3(C(=O)Nc4ccc(C#CC5(O)CCCCCC5)cc43)[C@@H](C(=O)NC[C@H](O)c3ccccc3)[C@H]12", "label_class": "Condition not met"}

We next turn to a different compound, shown below.
Does the reported z-score for "COCCOC(=O)N1C(=O)[C@@]2(c3cc(C#Cc4ccc(OC)cc4)ccc31)[C@H](c1ccc(O)cc1)N1[C@H](c3ccccc3)[C@H](c3ccccc3)OC(=O)[C@H]1[C@@H]2C(=O)N1CCCCCCC1" fall at or above the 0.2 mark?
Condition met
